target: T1, recombinant human PLGF (human, UniProt P49763-2 19-149, limits assumed)
T1 construct: Negative control; also called PIGF
T1 sequence (looked up): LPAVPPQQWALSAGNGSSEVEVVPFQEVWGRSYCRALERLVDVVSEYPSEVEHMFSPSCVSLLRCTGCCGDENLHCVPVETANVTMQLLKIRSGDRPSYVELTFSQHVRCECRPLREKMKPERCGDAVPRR
test.protocol: Biacore SPR, PlGF immobilized, pH 5

| binder | binding result |
| --- | --- |
| 511-min (scFv, VL and VH tied by name; also called Protein Nr) scFv: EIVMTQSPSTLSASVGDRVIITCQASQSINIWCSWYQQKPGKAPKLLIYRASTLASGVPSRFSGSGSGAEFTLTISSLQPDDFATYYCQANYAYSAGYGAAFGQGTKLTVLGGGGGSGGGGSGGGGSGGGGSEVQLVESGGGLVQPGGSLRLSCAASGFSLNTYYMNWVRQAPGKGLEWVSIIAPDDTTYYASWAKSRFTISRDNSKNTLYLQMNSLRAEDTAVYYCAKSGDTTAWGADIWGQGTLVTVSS | no binding |
| 567-max (scFv, VL and VH tied by name; also called Protein Nr; 874) scFv: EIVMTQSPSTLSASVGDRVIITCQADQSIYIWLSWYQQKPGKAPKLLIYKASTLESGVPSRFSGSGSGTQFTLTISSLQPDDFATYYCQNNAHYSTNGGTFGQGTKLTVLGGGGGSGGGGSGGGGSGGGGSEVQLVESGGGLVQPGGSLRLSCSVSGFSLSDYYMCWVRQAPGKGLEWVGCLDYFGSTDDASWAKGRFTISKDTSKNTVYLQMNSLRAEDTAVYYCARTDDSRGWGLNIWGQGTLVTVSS | no binding |
| 511-max (scFv, also called ESBA802) scFv: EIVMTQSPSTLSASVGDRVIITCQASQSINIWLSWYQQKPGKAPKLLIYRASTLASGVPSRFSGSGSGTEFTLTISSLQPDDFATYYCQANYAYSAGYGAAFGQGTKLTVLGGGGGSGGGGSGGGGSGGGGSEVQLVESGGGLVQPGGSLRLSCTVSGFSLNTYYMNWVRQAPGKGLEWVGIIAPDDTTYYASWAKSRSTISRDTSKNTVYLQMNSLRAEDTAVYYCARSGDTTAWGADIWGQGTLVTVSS | no binding |
